System: MV4-11
METHOD DESCRIPTION: Antiproliferative activity against human MV4-11 cells incubated for 72 hrs by CCK-8 assay
Type: functional, cell-based
PARTICULARS: MV4-11, 72 h
pIC50: −log10 of the molar value.
Threshold rule: pIC50 greater than or equal to 5 is Yes; below that, No.

Cc1nnc2n1-c1cnc(Nc3cccc(Cl)c3)nc1N(C1CCCC1)C2
No
Cc1nnc2n1-c1cnc(Nc3ccc(Cl)cc3)nc1N(C1CCCC1)C2
No
Cc1sc2c(c1C)C(c1ccc(Cl)cc1)=N[C@@H](CC(=O)OC(C)(C)C)c1nnc(C)n1-2
Yes
Cc1nnc2n1-c1cnc(Nc3ccc(S(C)(=O)=O)cc3)nc1N(C1CCCC1)C2
Yes
CCCCc1ccc(Nc2ncc3c(n2)N(C2CCCC2)Cc2nnc(C)n2-3)cc1
No

# evaluate next
Enquiry: Identify whether the reported pIC50 of the following compound is 5 or greater: Cc1nnc2n1-c1cnc(Nc3ccc(C(C)C)cc3)nc1N(C1CCCC1)C2
Return: No

Value source: ChEMBL document CHEMBL4340554
